measurement-setup: buffer; pH 7.4; 200.0 µM
experimental-readout: log10 of solubility kinetic (log10 of the value in µg/mL)
Recall that a logarithmic scale is used here: each number is log10 of solubility kinetic in µg/mL.

Known results for compounds:
compound | meas-value
COc1ccc(Nc2c(-c3ccco3)nc3ccc(C)cn23)cc1 | -0.30
COc1cc(OC)cc(C(=O)NCc2ccc3[nH]c(C)cc3c2)c1 | 0.52
CN1CCN(S(=O)(=O)c2ccc(N(C)Cc3c(F)cccc3Cl)nc2)CC1 | 0.73
O=C1Nc2ccccc2C(=O)N2CCCCC12 (configuration not stated) | 1.29

# ---- query compound ----
# get_value(readout='log10 of solubility kinetic', item= Cc1cccc(OCCCCCN2CCOCC2)c1 ) 1.48

---

measurement-setup: buffer; pH 7.4; 200.0 µM
solubility kinetic below 2 µg/mL gives NO; solubility kinetic at or above it gives YES.

molecule | label
O=C(Nc1ccccn1)c1sc2cc([N+](=O)[O-])ccc2c1Cl | NO
Cc1ccc(C)c(CN2CCSCC2)c1 | YES
COc1nc(NCCO)nc(Nc2cc(Cl)ccc2OC)n1 | YES
CN(C(=O)c1ccc(Oc2ccc([N+](=O)[O-])cc2)cc1)C1CCCCC1 | NO
C=CCn1c(C)nnc1SCC(=O)NC1CCCCC1 | YES
O=S(=O)(CCSc1ccc(C(F)(F)F)cn1)c1ccccc1 | YES
Cc1nn(C)c(C)c1NS(=O)(=O)c1ccc(Cl)cc1 | YES
COc1ccc(OC)c(NC(=O)CCN2CCN(CCO)CC2)c1 | YES
O=C(Nc1ccnc(-c2ccncc2)n1)c1ccccc1Cl | NO
CC(=O)Nc1ccc(S(=O)(=O)NCC(=O)Nc2ccc3c(c2)OCO3)cc1 | YES

Dear colleague, could you confirm whether Cc1ccsc1C(=O)NCCc1nnc2ccccn12 has solubility kinetic at or above 2 µg/mL? YES

Another molecule to look at: COc1cc(OC)cc(C(=O)NC2CCSc3ccccc32)c1 (configuration not stated) YES

---

measurement-setup: buffer; pH 7.4; 200.0 µM
Listed next: entries and their corresponding solubility kinetic.
Quick note: give the figure in µg/mL, leave out the unit.

Known results for molecules:
molecule | units-of-measure | solubility kinetic
O=C(NCC1CCCO1)c1ccc(NC(=O)c2cccc([N+](=O)[O-])c2)cc1 (stereo unspecified) | µg/mL | 3.5
CCOCCOC(=O)c1[nH]c2c(c1C)C(=O)CC(c1ccccc1)C2 (stereo unspecified) | µg/mL | 2.3
O=C(/C=C/c1ccc(OCc2cccc(Cl)c2)cc1)N1CCOCC1 | µg/mL | 5.2
N=c1oc2ccc(Cl)cc2cc1C(=O)Nc1ccc(F)cc1 | µg/mL | 1

# ---- query molecule ----
# get_value(readout='solubility kinetic', item= CCOc1ccc(C(=O)N[C@H](C(=O)Nc2ccc(S(=O)(=O)Nc3nccs3)cc2)C(C)C)cc1 ) 62.3

---

measurement-setup: buffer; pH 7.4; 200.0 µM
Listed next: entries and their corresponding log10(solubility kinetic).
Recall that a logarithmic scale is used here: each number is log10 of solubility kinetic in µg/mL.

Known results for compounds:
compound | log10(solubility kinetic)
CNC(=S)N(CCc1c(C)[nH]c2ccc(F)cc12)Cc1ccco1 | 0.48
Cc1ccc2c(c1)-c1[nH]c(=S)ncc1CS2 | 0.58

# get_value(readout='log10(solubility kinetic)', item= COc1ccc(Nc2nc(C)nc3c2oc2ccccc23)cc1 ) 0.23

Another compound to look at: CC(=O)Nc1cccc(OCCCNC(=O)c2ccc(F)cc2)c1 1.59

Another compound to look at: CCOC(=O)c1c(C)n(C(C)C)c2ccc(OC)cc12 1.18

Another compound to look at: Cc1ccc(C2C(C#N)=C(N)Oc3cc(N)ccc32)cc1 (stereo not given) 0.64

Another compound to look at: O=C(O)CCSc1nc2ccccc2n1Cc1ccccc1 1.64

Another compound to look at: Cc1ccccc1N1CCN(Cc2cc3c(cc2[N+](=O)[O-])OCO3)CC1 0.54

Another compound to look at: CCCS(=O)(=O)Nc1c(C(=O)O)[nH]c2ccc(OC)cc12 1.67

Another compound to look at: COc1cc(CNCC2CCCO2)ccc1OCC(N)=O.Cl (stereo not given) 1.69

Another compound to look at: Cc1cc(C)cc(NC(=O)c2sc3nc(C)cc(C)c3c2N)c1 -0.52

---

measurement-setup: buffer; pH 7.4; 200.0 µM
solubility kinetic below 30 µg/mL gives N; solubility kinetic at or above it gives Y.

Please review the entries below; each comes with its answer.
compound | label
CCC(C)NC(=O)Cn1nc(C(F)(F)F)c2c1CCC2 (centres undefined) | Y
COc1cccc(N2CC(C(=O)Nc3ccc(F)cc3)CC2=O)c1 (centres undefined) | N
CC(OC(=O)c1cc2sccc2n1C)C(=O)NC(C)(C)C (centres undefined) | Y
CCCN(CCC)S(=O)(=O)c1ccc(C(=O)NCc2ccco2)cc1 | N
Cc1ccc(NC(=S)NC2CCCC2)c(C)c1 | Y
CCN(C(=O)COC(=O)c1ccc2c(c1)OCO2)c1ccccc1 | Y

Dear colleague, could you confirm whether CN1C(C(=O)c2ccccc2)=C(N)c2ccccc2S1(=O)=O has solubility kinetic at or above 30 µg/mL? Y

Another compound to look at: COc1ccc(CN(C)Cc2c(O)ccc3ccccc23)cc1 N

Another compound to look at: Nc1nc(NCC2CCCO2)nc(Nc2ccccc2F)c1[N+](=O)[O-] (centres undefined) N

Another compound to look at: CCC1(c2ccc(Cl)cc2)NC(=O)N(CC(=O)N2CCN(C(=O)c3ccco3)CC2)C1=O (centres undefined) Y

Another compound to look at: O=C(NCc1ccccc1)/C(=C/c1ccco1)NC(=O)c1ccco1 Y

Another compound to look at: COc1ccccc1N1CCN(CC(O)c2ccccc2)CC1 (centres undefined) Y

Another compound to look at: CCSc1nc2ccccc2c(=O)n1Cc1ccc(F)cc1 N

---

measurement-setup: buffer; pH 7.4; 200.0 µM
Listed next: entries and their corresponding solubility kinetic.

Known results for compounds:
compound | solubility kinetic
Cc1ccc(Cl)cc1NC(=O)CC1NC2CCCCC2NC1=O (stereo not given) | 38.6 µg/mL
Cc1ccc(C)c(C(C)NC(=S)NC2CCCCC2)c1 (stereo not given) | 10.7 µg/mL
O=C(NCc1cccnc1)C1CC(c2cccc(Br)c2)=NO1 (stereo not given) | 52.5 µg/mL
CC(C)NC(=O)c1ccc(N(Cc2ccccc2)S(C)(=O)=O)cc1 | 11.1 µg/mL
O=c1c2sccc2[nH]c(=S)n1-c1ccccc1 | 38.5 µg/mL

# ---- query compound ----
# get_value(readout='solubility kinetic', item= CCOC(=O)c1ccc(N2C(=O)C=C(N3CCOCC3)C2=O)cc1 ) > 49.6 µg/mL

---

measurement-setup: buffer; pH 7.4; 200.0 µM
experimental-readout: solubility kinetic

compound | solubility kinetic
O=C(CSCc1ccc(Br)cc1)NCc1ccccn1 | > 52.7 µg/mL
O=C(Nc1cccc(S(=O)(=O)N2CCCC2)c1)c1ccc(Cl)nc1 | 15.6 µg/mL
CC(C)N(Cc1cc2ccccc2[nH]c1=O)C(=O)c1ccco1 | > 46.6 µg/mL
CCCN(CCC)S(=O)(=O)c1cc2c3c(c1)CCN3C(=O)CC2 | > 50.5 µg/mL
NC(=O)CN1C(=O)NC2(CCCc3sccc32)C1=O (configuration not stated) | > 41.9 µg/mL
N#Cc1ccccc1NC(=O)CN1CCN(c2ccccn2)CC1 | > 48.2 µg/mL

# get_value(readout='solubility kinetic', item= CC(=O)c1c(OC(=O)c2ccccc2)ccnc1C(F)(F)F ) > 46.4 µg/mL

Another compound to look at: Cc1nc(CSc2n[nH]c(=O)n2-c2cccc(F)c2)cs1 > 48.4 µg/mL

---

measurement-setup: buffer; pH 7.4; 200.0 µM
experimental-readout: solubility kinetic (µg/mL)
Quick note: give the figure in µg/mL, leave out the unit.

# get_value(readout='solubility kinetic', item= CC1CC(C)CN(CC(O)COCc2ccccc2)C1.Cl (stereo unspecified) ) 46.9

Another compound to look at: O=C(COC(=O)c1ccc([N+](=O)[O-])o1)Nc1ccc(N2CCOCC2)cc1 50.6

Another compound to look at: COc1ccc(Nc2nc(N)c([N+](=O)[O-])c(N3CCCC3)n2)cc1 26.5

---

measurement-setup: buffer; pH 7.4; 200.0 µM
solubility kinetic below 7 µg/mL gives not satisfied; solubility kinetic at or above it gives satisfied.

Please review the entries below; each comes with its answer.
compound | label
CCOc1ccc(NC(=O)COC(=O)CN2CCCCCC2=O)cc1 | satisfied
COCc1cc(=O)[nH]c(Cc2c(Cl)cccc2Cl)n1 | not satisfied
Cc1ccc(S(=O)(=O)N2CCOCC2)cc1NC(=O)COC(=O)c1ccc(Cl)s1 | not satisfied
O=C(Cc1ccccc1F)Nc1nc2ccccc2[nH]1 | not satisfied
CC(NC(=O)C(=O)NCC1CCCO1)c1ccccc1 (centres undefined) | satisfied

Dear colleague, could you confirm whether O=c1c(N2CCOCC2)c(N2CCOCC2)c1=O has solubility kinetic at or above 7 µg/mL? satisfied

Another compound to look at: O=C1Nc2ccccc2N2CCCC12 (centres undefined) satisfied

Another compound to look at: Cc1cc(C)cc(NC(=O)CNC(c2ccccc2)c2ccccc2)c1 not satisfied
